ASSAY SYSTEM: Estrogen Receptor Alpha Ligand binding domain (ER alpha-LBD (GST)) (Homo sapiens, UniProt P03372)
Sequence (P03372 307-554): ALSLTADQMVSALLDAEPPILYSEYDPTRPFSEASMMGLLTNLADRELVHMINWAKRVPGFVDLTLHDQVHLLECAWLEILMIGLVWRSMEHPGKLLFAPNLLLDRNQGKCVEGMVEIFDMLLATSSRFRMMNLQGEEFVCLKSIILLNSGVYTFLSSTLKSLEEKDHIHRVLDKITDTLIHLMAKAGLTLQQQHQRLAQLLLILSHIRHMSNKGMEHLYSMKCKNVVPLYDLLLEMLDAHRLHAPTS
PROCEDURE DETAILS: ERα Binding Assay (LanthaScreen TR-FRET competition)
RECORDED CONDITIONS: competitive displacement of Fluormone ES2 tracer from recombinant human ER alpha-LBD (residues 307-554), 4 hours at room temperature
Procedure: The ability of compounds to bind to isolated Estrogen Receptor Alpha Ligand binding domain (ER alpha-LBD (GST)) was assessed in competition assays using a LanthaScreen™ Time-Resolved Fluorescence Resonance Energy Transfer (TR-FRET) detection end-point. […]
pIC50: −log10 of the molar value.
EXPERIMENTAL ENDPOINT: pIC50

{"COMPOUND": "COc1cc(N2CCN(CCCC3CCN(c4ncc([C@@H]5c6[nH]c7ccccc7c6C[C@@H](C)N5CC(C)(C)F)cn4)CC3)CC2)cc2c1C(=O)N(C1CCC(=O)NC1=O)C2 (some centres unmarked) [Example 13]", "RECORDED NUMBER": 8.52}
{"COMPOUND": "C[C@@H]1Cc2c([nH]c3ccccc23)[C@@H](c2cnc(N3CCC(CCN4CCN(c5ccc6c(c5)CN(C5CCC(=O)NC5=O)C6=O)CC4)CC3)nc2)N1CC(F)(F)F (some centres unmarked) [Example 15]", "RECORDED NUMBER": 8.43}
{"COMPOUND": "COc1cc(N2CCN(CCC3CCN(c4ncc([C@@H]5c6[nH]c7ccccc7c6C[C@@H](C)N5CC(C)(C)F)cn4)CC3)CC2)cc2c1C(=O)N(C1CCC(=O)NC1=O)C2 (some centres unmarked) [Example 12]", "RECORDED NUMBER": 8.82}
{"COMPOUND": "C[C@@H]1Cc2c([nH]c3ccccc23)[C@@H](c2c(F)cc(OCCCCCN3CCN(c4ccc5c(c4)CN(C4CCC(=O)NC4=O)C5=O)CC3)cc2F)N1CC(C)(C)F (some centres unmarked) [Example 5]", "RECORDED NUMBER": 8.43}
{"COMPOUND": "C[C@@H]1Cc2c([nH]c3ccccc23)[C@@H](c2cnc(N3CCC(OCCCN4CCN(c5ccc6c(c5)CN(C5CCC(=O)NC5=O)C6=O)CC4)CC3)nc2)N1CC(C)(C)F (some centres unmarked) [Example 38]", "RECORDED NUMBER": 8.44}
{"COMPOUND": "C[C@@H]1Cc2c([nH]c3ccccc23)[C@@H](c2cnc(N3CC(CCN4CCN(c5ccc6c(c5)CN(C5CCC(=O)NC5=O)C6=O)CC4)C3)nc2)N1CC(C)(C)F (some centres unmarked) [Example 37]", "RECORDED NUMBER": 8.48}
{"COMPOUND": "C[C@@H]1Cc2c([nH]c3ccccc23)[C@@H](c2cnc(N3CCC(CCN4CCC5(CC4)CCN(c4ccc6c(c4)CN(C4CCC(=O)NC4=O)C6=O)CC5)CC3)nc2)N1CC(C)(C)F (some centres unmarked) [Example 11]", "RECORDED NUMBER": 8.92}
{"COMPOUND": "C[C@@H]1Cc2c([nH]c3ccccc23)[C@@H](c2cnc(OCCCCCN3CCN(c4ccc5c(c4)CN(C4CCC(=O)NC4=O)C5=O)CC3)nc2)N1CC(C)(C)F (some centres unmarked) [Example 40]", "RECORDED NUMBER": 8.15}
{"COMPOUND": "C[C@@H]1Cc2c([nH]c3ccccc23)[C@@H](c2cnc(N3CCC4(CCN(CCC5CCN(c6ccc7c(c6)CN(C6CCC(=O)NC6=O)C7=O)CC5)CCO4)CC3)nc2)N1CC(C)(C)F (some centres unmarked) [Example 17]", "RECORDED NUMBER": 7.86}
{"COMPOUND": "C[C@@H]1Cc2c([nH]c3ccccc23)[C@@H](c2cnc(N3CCC(CN4CCN(c5ccc6c(c5)CN(C5CCC(=O)NC5=O)C6=O)CC4)CC3)nc2)N1CC(F)(F)F (some centres unmarked) [Example 35]", "RECORDED NUMBER": 8.16}
{"COMPOUND": "C[C@@H]1Cc2c([nH]c3ccccc23)[C@@H](c2cnc(N3CCC(CCN4CCOC5(CC4)CCN(c4ccc6c(c4)CN(C4CCC(=O)NC4=O)C6=O)CC5)CC3)nc2)N1CC(C)(C)F (some centres unmarked) [Example 20]", "RECORDED NUMBER": 8.70}
{"COMPOUND": "C[C@@H]1Cc2c([nH]c3ccccc23)[C@@H](c2ccc(N3CCC(CN4CCC5(CC4)CCN(c4ccc6c(c4)CN(C4CCC(=O)NC4=O)C6=O)CC5)CC3)cn2)N1CC(C)(C)F (some centres unmarked) [Example 21]", "RECORDED NUMBER": 8.12}
{"COMPOUND": "C[C@@H]1Cc2c([nH]c3ccccc23)[C@@H](c2cnc(N3CCC(CCCN4CCN(c5ccc6c(c5)CN(C5CCC(=O)NC5=O)C6=O)CC4)CC3)nc2)N1CC(F)(F)F (some centres unmarked) [Example 34]", "RECORDED NUMBER": 8.14}
{"COMPOUND": "C[C@@H]1Cc2c([nH]c3ccccc23)[C@@H](c2cnc(N3CCC4(CCN(CC5CCN(c6ccc7c(c6)CN(C6CCC(=O)NC6=O)C7=O)CC5)CCO4)CC3)nc2)N1CC(C)(C)F (some centres unmarked) [Example 18]", "RECORDED NUMBER": 8.02}
{"COMPOUND": "C[C@@H]1Cc2c([nH]c3ccccc23)[C@@H](c2cnc(N3CCC(CN4CCN(c5ccc6c(c5)CN(C5CCC(=O)NC5=O)C6=O)CC4)CC3)nc2)N1CC(C)(C)F (some centres unmarked) [Example 1]", "RECORDED NUMBER": 8.51}
{"COMPOUND": "C[C@@H]1Cc2c([nH]c3ccccc23)[C@@H](c2cnc(N3CCC(CCN4CCN(c5ccc6c(c5)CN(C5CCC(=O)NC5=O)C6=O)CC4)CC3)nc2)N1CC(C)(C)F (some centres unmarked) [Example 2]", "RECORDED NUMBER": 8.48}
{"COMPOUND": "C[C@@H]1Cc2c([nH]c3ccccc23)[C@@H](c2cnc(N3CCC4(CCN(CCN5CCN(c6ccc7c(c6)CN(C6CCC(=O)NC6=O)C7=O)CC5=O)CC4)CC3)nc2)N1CC(C)(C)F (some centres unmarked) [Example 26]", "RECORDED NUMBER": 7.74}
{"COMPOUND": "C[C@@H]1Cc2c([nH]c3ccccc23)[C@@H](c2cnc(N3CCC4(CCN(CCC5CCN(c6ccc7c(c6)CN(C6CCC(=O)NC6=O)C7=O)CC5)CC4)CC3)nc2)N1CC(C)(C)F (some centres unmarked) [Example 10]", "RECORDED NUMBER": 7.65}
{"COMPOUND": "C[C@@H]1Cc2c([nH]c3ccccc23)[C@@H](c2cnc(N3CCC(CN4CCOC5(CC4)CCN(c4ccc6c(c4)CN(C4CCC(=O)NC4=O)C6=O)CC5)CC3)nc2)N1CC(C)(C)F (some centres unmarked) [Example 19]", "RECORDED NUMBER": 8.28}
{"COMPOUND": "C[C@@H]1Cc2c([nH]c3ccccc23)[C@@H](c2cnc(N3CCC(CN4CCC5(CC4)CCN(c4ccc6c(c4)CN(C4CCC(=O)NC4=O)C6=O)CC5)CC3)nc2)N1CC(C)(C)F (mixture of isomers) [Example 7]", "RECORDED NUMBER": 8.33}

Provenance of the data: patent US20220169643A1
